# TGT: Spike protein of SARS-CoV-2 strain XBB.1.5 (GISAID EPI_ISL_16353849) (SARS-CoV-2)
# EXPERIMENT DESCRIPTION: cell-based or functional assay
Param label: returns 1 when IC50, S-Fuse neutralization of live virus < 0.1 µg/mL, returns -1 otherwise, including exact equality.

Below, 3 binders whose answers are already recorded.
BINDER	CLASS LABEL
SPK002M C1 antibody (antibody, human IgG1, kappa, V domains shown) VH: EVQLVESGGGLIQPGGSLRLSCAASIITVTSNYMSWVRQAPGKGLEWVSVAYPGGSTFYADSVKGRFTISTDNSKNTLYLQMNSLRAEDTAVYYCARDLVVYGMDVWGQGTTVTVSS VL: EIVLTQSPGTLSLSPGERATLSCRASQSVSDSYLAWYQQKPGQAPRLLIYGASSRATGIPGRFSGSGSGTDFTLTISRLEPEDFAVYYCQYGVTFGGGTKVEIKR	1
SPK002M A3 antibody (antibody, human IgG1, kappa, V domains shown) VH: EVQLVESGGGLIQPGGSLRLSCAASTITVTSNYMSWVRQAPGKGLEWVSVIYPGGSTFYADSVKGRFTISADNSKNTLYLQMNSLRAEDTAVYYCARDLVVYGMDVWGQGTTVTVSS VL: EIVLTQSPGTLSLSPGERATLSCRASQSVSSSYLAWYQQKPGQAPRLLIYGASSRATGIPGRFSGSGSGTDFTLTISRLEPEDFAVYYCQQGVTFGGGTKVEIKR	-1
SPK002M C3 antibody (antibody, human IgG1, kappa, V domains shown) VH: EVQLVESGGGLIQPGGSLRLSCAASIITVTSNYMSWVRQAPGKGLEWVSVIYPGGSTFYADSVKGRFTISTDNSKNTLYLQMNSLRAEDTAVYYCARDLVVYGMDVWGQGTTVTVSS VL: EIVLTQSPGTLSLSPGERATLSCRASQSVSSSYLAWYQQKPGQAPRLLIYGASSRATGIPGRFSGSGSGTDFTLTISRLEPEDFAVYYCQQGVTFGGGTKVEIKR	-1

Ask: Does the reported IC50, S-Fuse neutralization of live virus of SPK002M A5 antibody (antibody, human IgG1, kappa, V domains shown) VH: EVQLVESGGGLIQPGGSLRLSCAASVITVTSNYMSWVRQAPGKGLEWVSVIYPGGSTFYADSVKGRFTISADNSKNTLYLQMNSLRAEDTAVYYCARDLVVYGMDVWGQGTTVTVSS VL: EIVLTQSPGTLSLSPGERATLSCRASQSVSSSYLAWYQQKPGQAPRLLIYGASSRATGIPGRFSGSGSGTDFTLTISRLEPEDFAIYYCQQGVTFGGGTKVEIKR stay below 0.1 µg/mL?
Result: -1

Ask: Determine whether this binder shows IC50, S-Fuse neutralization of live virus lower than 0.1 µg/mL (ties excluded): SPK002M B1 antibody (antibody, human IgG1, kappa, V domains shown) VH: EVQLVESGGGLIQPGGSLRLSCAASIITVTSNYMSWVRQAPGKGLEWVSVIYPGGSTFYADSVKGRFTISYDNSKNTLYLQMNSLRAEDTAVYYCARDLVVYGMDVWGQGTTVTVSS VL: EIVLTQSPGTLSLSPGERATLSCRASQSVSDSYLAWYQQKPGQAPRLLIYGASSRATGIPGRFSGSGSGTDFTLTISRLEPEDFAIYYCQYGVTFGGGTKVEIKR
Result: 1

Ask: Decide: IC50, S-Fuse neutralization of live virus of SPK002M B2 antibody (antibody, human IgG1, kappa, V domains shown) VH: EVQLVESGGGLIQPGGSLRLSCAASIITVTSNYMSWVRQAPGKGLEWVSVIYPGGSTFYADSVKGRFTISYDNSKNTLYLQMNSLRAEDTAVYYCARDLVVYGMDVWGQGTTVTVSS VL: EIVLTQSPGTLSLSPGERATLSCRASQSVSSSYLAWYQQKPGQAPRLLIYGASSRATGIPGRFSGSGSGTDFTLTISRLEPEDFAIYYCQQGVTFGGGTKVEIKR strictly below 0.1 µg/mL?
Result: -1

Ask: Say whether its IC50, S-Fuse neutralization of live virus is strictly beneath 0.1 µg/mL. Entry: SPK002M C2 antibody (antibody, human IgG1, kappa, V domains shown) VH: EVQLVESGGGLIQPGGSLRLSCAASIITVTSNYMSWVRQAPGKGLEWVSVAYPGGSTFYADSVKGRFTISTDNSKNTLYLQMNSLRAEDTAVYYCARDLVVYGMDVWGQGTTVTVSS VL: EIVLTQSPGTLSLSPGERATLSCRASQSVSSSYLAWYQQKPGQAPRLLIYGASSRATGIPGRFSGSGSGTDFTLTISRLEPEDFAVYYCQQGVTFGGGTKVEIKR
Result: -1

Ask: Report whether reported IC50, S-Fuse neutralization of live virus is lower than 0.1 µg/mL (strictly) for SPK002M A6 antibody (antibody, human IgG1, kappa, V domains shown) VH: EVQLVESGGGLIQPGGSLRLSCAASGITVTSNYMSWVRQAPGKGLEWVSVIYPGGSTFYADSVKGRFTISADNSKNTLYLQMNSLRAEDTAVYYCARDLVVYGMDVWGQGTTVTVSS VL: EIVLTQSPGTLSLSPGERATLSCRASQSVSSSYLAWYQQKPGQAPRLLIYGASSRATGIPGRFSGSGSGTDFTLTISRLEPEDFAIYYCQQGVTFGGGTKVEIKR
Result: -1

Ask: Is IC50, S-Fuse neutralization of live virus of SPK002 antibody (parental version Cv2.3194 described in WO 2022/228827) (antibody, V domains shown) VH: EVQLVESGGGLIQPGGSLRLSCAASGITVTSNYMSWVRQAPGKGLEWVSVIYPGGSTFYADSVKGRFTISRDNSKNTLYLQMNSLRAEDTAVYYCARDLVVYGMDVWGQGTTVTVS VL: EIVLTQSPGTLSLSPGERATLSCRASQSVSSSYLAWYQQKPGQAPRLLIYGASSRATGIPGRFSGSGSGTDFTLTISRLEPEDFAIYYCQQGVTFGGGTKVEIK strictly below 0.1 µg/mL?
Result: -1

Ask: Report whether reported IC50, S-Fuse neutralization of live virus is lower than 0.1 µg/mL (strictly) for SPK002M A1 antibody (antibody, human IgG1, kappa, V domains shown) VH: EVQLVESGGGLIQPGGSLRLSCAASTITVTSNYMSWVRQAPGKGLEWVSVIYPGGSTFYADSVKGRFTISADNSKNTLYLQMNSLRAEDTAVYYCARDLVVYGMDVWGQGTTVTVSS VL: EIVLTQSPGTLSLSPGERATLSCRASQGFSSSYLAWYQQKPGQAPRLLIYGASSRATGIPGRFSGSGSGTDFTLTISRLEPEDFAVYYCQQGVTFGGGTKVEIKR
Result: 1

Ask: Decide: IC50, S-Fuse neutralization of live virus of SPK002M A4 antibody (antibody, human IgG1, kappa, V domains shown) VH: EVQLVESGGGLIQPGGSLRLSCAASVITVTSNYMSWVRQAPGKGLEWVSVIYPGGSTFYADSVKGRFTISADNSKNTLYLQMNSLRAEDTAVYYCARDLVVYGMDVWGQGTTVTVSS VL: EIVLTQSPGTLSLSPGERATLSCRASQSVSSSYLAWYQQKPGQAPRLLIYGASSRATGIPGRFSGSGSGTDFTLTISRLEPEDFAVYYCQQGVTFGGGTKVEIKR strictly below 0.1 µg/mL?
Result: -1
